Tested on: RXF 393
Test: NCI tumour cell line growth inhibition, 48 h
Calls of active or inactive are those of the source. Cut-off read from the data, not from the text of the source: active = GI50 up to about 1.1 µM and inactive = higher.
Outcomes: active, inactive

>  <COMPOUND>
O=C(NCCSSCCNC(=O)/C(Cc1ccc(O)c(Br)c1)=N/O)/C(Cc1ccc(O)c(Br)c1)=N/O [PSAMMAPLIN A]

>  <ANSWER LABEL>
active

$$$$
>  <COMPOUND>
COc1cc2c3c(c4ccc(O)cc4c2cc1OC)[C@@H](O)[C@@H]1CCCN1C3

>  <ANSWER LABEL>
active

$$$$
>  <COMPOUND>
CC1(O)CCC2(C#N)CCC1C2O (stereo not drawn)

>  <ANSWER LABEL>
inactive

$$$$
